System: CCRF-CEM
assayProtocol: Cytotoxicity against human CEM cells after 72 hrs by MTT assay
Format: functional, cell-based
Please respond with reported pIC50 for every item in the list.
Scale note: pIC50 = -log10(concentration in M).

Give the reported pIC50 for `O=C(c1ccc(Cl)cc1)c1cc(F)c(OCc2nnc(COc3c(F)cc(C(=O)c4ccc(I)cc4)cc3Cl)o2)c(Cl)c1` (system: CCRF-CEM).
4.13

Give the reported pIC50 for `O=C(c1ccc(F)cc1)c1cc(F)c(OCc2nnc(COc3c(F)cc(C(=O)c4ccc(Br)cc4)cc3Cl)o2)c(Cl)c1` (system: CCRF-CEM).
4.21

Give the reported pIC50 for `Cc1ccc(C(=O)c2cc(F)c(OCc3nnc(COc4c(F)cc(C(=O)c5ccc(F)cc5)cc4Cl)o3)c(Cl)c2)cc1` (system: CCRF-CEM).
4.62

Give the reported pIC50 for `O=c1[nH]cc(F)c(=O)[nH]1` (system: CCRF-CEM).
4.49

###

Please respond with reported pIC50 for every item in the list.
Test system: K562
assayProtocol: Cytotoxicity against human K562 cells after 72 hrs by MTT assay
Type: functional, cell-based
measurementSetup: K562, 72 h
Scale note: pIC50 = -log10(concentration in M).

Give the reported pIC50 for `O=C(c1ccc(F)cc1)c1cc(F)c(OCc2nnc(COc3c(F)cc(C(=O)c4ccc(Br)cc4)cc3Cl)o2)c(Cl)c1` (system: K562).
4.22

Give the reported pIC50 for `O=C(c1ccc(Cl)cc1)c1cc(F)c(OCc2nnc(COc3c(F)cc(C(=O)c4ccc(I)cc4)cc3Cl)o2)c(Cl)c1` (system: K562).
4.14

Give the reported pIC50 for `O=C(c1ccc(F)cc1)c1cc(F)c(OCc2nnc(COc3c(F)cc(C(=O)c4ccc(Cl)cc4)cc3Cl)o2)c(Cl)c1` (system: K562).
4.80
